Provenance of the data: patent US20170052184A1

# Target: T1, HCV Core1-169 (hepatitis C virus (HCV-1), UniProt P26664 1-169)
# T1 sequence: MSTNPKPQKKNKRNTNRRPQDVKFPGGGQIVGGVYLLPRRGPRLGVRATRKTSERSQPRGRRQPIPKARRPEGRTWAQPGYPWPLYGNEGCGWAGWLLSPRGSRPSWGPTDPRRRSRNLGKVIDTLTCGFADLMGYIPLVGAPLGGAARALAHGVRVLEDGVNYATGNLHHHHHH
# Assay method text: SPR sandwich, capture mAb C11-7
Reported metric: expected percent binding (%)
Numbers only here, please. The scale is %.

Query: Entry under review: HCV 208B-1096 (antibody, V domains shown) VH: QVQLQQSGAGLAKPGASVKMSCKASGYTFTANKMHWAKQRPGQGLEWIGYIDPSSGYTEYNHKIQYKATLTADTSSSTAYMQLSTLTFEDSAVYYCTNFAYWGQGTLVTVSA VL: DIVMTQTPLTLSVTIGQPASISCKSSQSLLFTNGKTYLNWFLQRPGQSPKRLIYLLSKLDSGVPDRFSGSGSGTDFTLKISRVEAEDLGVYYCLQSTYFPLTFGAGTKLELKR . Reported expected percent binding?
Response: 16.9
